System: myo-inositol dehydrogenase derived from the strain F.sp.671
method.notes: Relative activity assay (initial velocity with each coenzyme or substrate)
Assay type: biochemical, Flavobaterium sp. 671
applied.conditions: coenzyme NAD, substrate 20 mM, pH 10.0, 37° C.; initial velocity to myo-inositol as 100%
Procedure: The relative activities were determined with the coenzyme changed according to the following method. […] The initial velocity is obtained from an absorbance change per minute at a wavelength peculiar to each reduced coenzyme. […]
assay.endpoint: Substrate specificity (enzyme activity for each substrate)

Previously resolved entries follow.
>>> val("O[C@H]1[C@H](O)[C@@H](O)[C@H](O)[C@@H](O)[C@H]1O [myo-Inositol, myo-inositol]")
"100%"
>>> val("OC[C@@H](O)[C@@H](O)[C@H](O)[C@H](O)CO [Mannitol, mannitol]")
"0%"

--- query ---
Q. Could you tell me which Substrate specificity (enzyme activity for each substrate) is on file for OC1C(O)C(O)C(O)C(O)C1O [chiro-Inositol, D-chiro-inositol] ?
A. 18%

---

Test system: myo-inositol dehydrogenase derived from the strain F.sp.671
method.notes: Relative activity assay (initial velocity with each coenzyme or substrate)
Format: biochemical, Flavobaterium sp. 671
applied.conditions: coenzyme NAD, substrate 20 mM, pH 10.0, 37° C.; initial velocity to myo-inositol as 100%
assay.endpoint: Substrate specificity (enzyme activity for each substrate)

>>> val("O[C@H]1[C@H](O)[C@@H](O)[C@H](O)[C@@H](O)[C@@H]1O")
"less than 1%"
>>> val("OC1C(O)C(O)C(O)C(O)C1O (stereo not drawn) [epi-Inositol, epi-inositol]")
"2%"
>>> val("O=C(CO)[C@@H](O)[C@H](O)[C@H](O)CO")
"less than 1%"

Values from patent US7452687B2
